target: NR1/NR2B (Rattus norvegicus, UniProt P35439+Q00960); assay: Two electrode voltage clamp, Xenopus oocytes expressing recombinant NR1/NR2B; type: cell-based; details: read-out: 2B percent effect at the maximum tested concentration
Sequence (Q00960 27-1482, other chains not shown): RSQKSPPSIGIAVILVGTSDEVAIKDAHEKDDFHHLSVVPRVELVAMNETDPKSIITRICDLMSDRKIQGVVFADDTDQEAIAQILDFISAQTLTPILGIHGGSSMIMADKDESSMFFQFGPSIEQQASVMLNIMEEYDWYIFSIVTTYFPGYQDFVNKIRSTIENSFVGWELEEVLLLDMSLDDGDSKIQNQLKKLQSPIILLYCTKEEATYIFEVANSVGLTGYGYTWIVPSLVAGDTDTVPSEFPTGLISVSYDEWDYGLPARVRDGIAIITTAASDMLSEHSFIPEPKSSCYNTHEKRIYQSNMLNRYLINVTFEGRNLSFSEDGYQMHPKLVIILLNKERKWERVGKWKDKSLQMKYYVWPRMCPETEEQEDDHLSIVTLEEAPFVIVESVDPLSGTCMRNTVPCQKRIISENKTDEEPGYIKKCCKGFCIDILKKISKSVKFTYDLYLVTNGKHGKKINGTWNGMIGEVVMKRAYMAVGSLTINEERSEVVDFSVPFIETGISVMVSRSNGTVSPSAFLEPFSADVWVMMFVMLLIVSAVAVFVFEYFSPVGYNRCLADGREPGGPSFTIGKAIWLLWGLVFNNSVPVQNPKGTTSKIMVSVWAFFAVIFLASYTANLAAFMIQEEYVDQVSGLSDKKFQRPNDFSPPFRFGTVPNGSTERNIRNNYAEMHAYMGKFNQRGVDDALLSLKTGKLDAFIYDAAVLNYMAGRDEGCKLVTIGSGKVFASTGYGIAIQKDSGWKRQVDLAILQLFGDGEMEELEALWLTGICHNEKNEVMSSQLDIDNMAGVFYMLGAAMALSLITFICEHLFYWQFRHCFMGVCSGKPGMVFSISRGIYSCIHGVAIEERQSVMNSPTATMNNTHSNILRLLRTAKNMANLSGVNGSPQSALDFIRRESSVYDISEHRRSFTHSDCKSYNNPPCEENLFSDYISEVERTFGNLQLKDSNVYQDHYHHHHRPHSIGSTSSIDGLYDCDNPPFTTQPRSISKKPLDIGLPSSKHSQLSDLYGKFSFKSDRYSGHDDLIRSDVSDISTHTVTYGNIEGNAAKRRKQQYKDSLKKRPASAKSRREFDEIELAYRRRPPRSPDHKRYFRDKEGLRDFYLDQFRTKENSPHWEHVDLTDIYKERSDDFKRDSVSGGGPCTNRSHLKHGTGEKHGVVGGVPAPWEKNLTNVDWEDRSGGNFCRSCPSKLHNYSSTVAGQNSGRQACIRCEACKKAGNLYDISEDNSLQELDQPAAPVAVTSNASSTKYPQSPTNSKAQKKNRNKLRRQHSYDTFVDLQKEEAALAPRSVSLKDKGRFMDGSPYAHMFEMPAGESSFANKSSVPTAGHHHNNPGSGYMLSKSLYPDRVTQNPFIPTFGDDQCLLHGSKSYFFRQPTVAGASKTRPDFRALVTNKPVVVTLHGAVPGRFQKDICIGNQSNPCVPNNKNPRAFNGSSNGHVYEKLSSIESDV
Each item that follows carries a reported remaining activity at 100 µM.

| Smiles Representation | remaining activity at 100 µM, % |
| --- | --- |
| CC(C)N(C(=O)Oc1ccc(C(=O)Nc2ccc3[nH]ccc3c2)cc1)C(C)C | 81 |
| CCN(C)C(=O)Oc1ccc(C(=O)Nc2cccc3cc[nH]c23)cc1 | 71 |
| CC(C)N(C(=O)Oc1ccc(C(=O)Oc2ccc3cccc(N)c3c2)cc1)C(C)C | 84 |
| CCN(CC)C(=O)Oc1ccc(C(=O)Nc2ccc3c(c2)CCCC3)cc1 | 74 |
